- Tested target: T1, Human Activin A Fc (human, UniProt P03970 309-424 (pig entry))
- T1 construct: also called human Activin A-Fc fusion; human Activin A-Fc antigen; not shown: Fc part
- T1 sequence: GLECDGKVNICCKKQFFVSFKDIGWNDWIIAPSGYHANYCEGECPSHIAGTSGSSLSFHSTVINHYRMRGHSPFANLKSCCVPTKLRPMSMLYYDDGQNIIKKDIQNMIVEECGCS
- Protocol summary: Octet BLI, Fab, monovalent
Endpoint: Kd
Please append the unit to your numeric answer.

[ask] Answer with the recorded Kd of Fab of anti-Activin A antibody Clone A (Fab, V domains shown, Fab format; only VH and VL are tied to the clone; also called Clone A Fab) VH: QVQLVQSGAEVKKPGASVKVSCKASGYTFTGYYMHWVRQAPGQGLEWMGSINPSSGGTNYAQKFQGRVTMTTDTSTSTAYMELRSLRSDDTAVYYCARARDIAAAGLGAFDYWGQGTLVTVSS VL: EIVLTQSPGTLSLSPGERATLSCRASQSVRSSYLAWYQQKPGQAPRLLIYGASSRATGIPDRFSGSGSGTDFTLTISRLEPEDFAVYYCQQYVSYPRTFGGGTKVEIK only.
[reply] 2.02 nM

[ask] Check the records and state Kd for Fab of anti-Activin A antibody Clone G (Fab, V domains shown, Fab format; only VH and VL are tied to the clone; also called Clone G Fab) VH: QVQLVQSGAEVKKPGASVKVSCKASGYTFTSYYIHWVRQAPGQGLEWMGAIYAYSGDTNYAQKLQGRVTMTTDTSTSTAYMELRSLRSDDTAVYYCARARDIAAAGLGAFDYWGQGTLVTVSS VL: EIVLTQSPGTLSLSPGERATLSCRASQSVRSSYLAWYQQKPGQAPRLLIYGASSRATGIPDRFSGSGSGTDFTLTISRLEPEDFAVYYCQQYSNYPRTFGGGTKVEIK
[reply] 1.09 nM

[ask] In one line, give reported Kd of the entry Fab of anti-Activin A antibody Clone E (Fab, V domains shown, Fab format; only VH and VL are tied to the clone; also called Clone E Fab) VH: QVQLVQSGAEVKKPGASVKVSCKASGYTFHGYNMHWVRQAPGQGLEWMGSINPYSGYTIYAQKFQGRVTMTRDTSISTAYMELSRLRSDDTAVYYCARARDIAAAGLGAFDYWGQGTLVTVSS VL: EIVLTQSPGTLSLSPGERATLSCRASQSVRSSYLAWYQQKPGQAPRLLIYGASSRATGIPDRFSGSGSGTDFTLTISRLEPEDFAVYYCQQYVSYPRTFGGGTKVEIK .
[reply] 0.79 nM

The reported numbers originate from patent US20260265358A1.
